assay: Stability assessed as half life at pH 8.78; assay type: physicochemical; conditions: buffer
OUTCOME_MEASURE: half-life (h)

O=C1CC[C@H](N2C(=O)c3ccccc3C2=O)C(=O)N1 = 2.6

====

assay: Stability assessed as half life at pH 7.23; type: physicochemical; conditions: buffer
OUTCOME_MEASURE: half-life

O=C1CC[C@H](N2C(=O)c3ccccc3C2=O)C(=O)N1 = 5.1 h

// provenance: ChEMBL document CHEMBL1151853
